- System: NCI-H460 lung
- assay: NCI-60 one-dose screen, 48 h (100 = growth as untreated, 0 = no growth, -100 = all killed)
- measurement-setup: 10 µM unless noted
This is part of a sample that, as a whole, favours compounds with a hit. Of some 83,000 tested, about 20% had one in any assay.
Catalogue of growth values

compound	assay-target	uom	growth
CNCc1cccc2c1OCCOCCOCCN(CCN1CCOCC1)S(=O)(=O)c1ccc(cc1)-c1cnc(N)c(n1)C(=O)N2	NCI-H460 lung	%	30.7
O=c1[nH]nc(-c2ccccc2)c2sc(NC(=S)Nc3ccc(Cl)cc3)nc12	NCI-H460 lung	%	97.6
COC1=CC=CC2(OC)C3(O)CCCc4cccc(c43)N3C(=O)COC132 (stereo not given)	NCI-H460 lung	%	105
N#CC1C(c2ccc(Cl)cc2)=Nc2c(c(-c3ccccc3)nn2-c2ccccc2)C12C(=O)Nc1ccc(Cl)cc12 (stereo not given)	NCI-H460 lung	%	22.3
COC(=O)c1nc(-c2ccccc2)oc1S(=O)(=O)n1nc(-c2ccccc2)cc1N	NCI-H460 lung	%	100

* * *

- System: HS 578T breast
- assay: NCI-60 one-dose screen, 48 h (100 = growth as untreated, 0 = no growth, -100 = all killed)
- measurement-setup: 10 µM unless noted
This is part of a sample that, as a whole, favours compounds with a hit. Of some 83,000 tested, about 20% had one in any assay.
growth below 80% gives Not satisfied; growth at or above it gives Satisfied.

compound	group
c1ccc(-c2cn3ccnc3c(-c3ccc4c(c3)ncn4C3CCCCC3)n2)cc1	Satisfied
C=C(C)[C@@H]1CC[C@]2(C(=O)OCCOCCOCC[P+](c3ccccc3)(c3ccccc3)c3ccccc3)CC[C@]3(C)[C@H](CC[C@@H]4[C@@]5(C)CC[C@H](OC(=O)C(Cl)Cl)C(C)(C)[C@@H]5CC[C@]43C)[C@@H]12	Not satisfied
O=C(CCc1nnc2sc(OCc3ccccc3)nn12)c1nc2ccc([N+](=O)[O-])cc2[nH]1	Satisfied
O=C1NC(c2ccc(F)cc2)N=C2C(c3ccccc3)=NOC12 (stereo unspecified)	Satisfied
CCOC(=O)c1c(C)nc2c(c1N)/C(=C/c1ccc[nH]1)C(=O)N2Cc1ccc(C(F)(F)F)cc1	Not satisfied
COc1ccc2oc(=O)cc(-c3c(C#N)c(N)n4nc(N)c(C#N)c4c3C#N)c2c1	Satisfied
Cn1nc(C(F)(F)F)c(-c2cc(C(F)(F)F)cc(C(F)(F)F)c2)c1-c1ccc(OCc2ccc(Cl)cc2)cc1O	Not satisfied
CC(C)(C)c1nc2c(s1)c1nc(N)ncc1c1ccc(NS(=O)(=O)c3c(F)cccc3F)c(F)c12	Not satisfied
COc1cc(NC(=O)COc2cc(C)nc3ccc(OC)cc23)cc(OC)c1	Satisfied
C=C1C(=O)O[C@H]2[C@H]1CC/C(C=Nc1c(N)cc(F)cc1Br)=C\CC[C@@]1(C)O[C@@H]21	Satisfied
COc1ccc2[nH]c3nc4cnccc4cc3c2c1	Satisfied
COc1cc([C@H](C)c2ccc3ccccc3c2)cc(OC)c1OC	Not satisfied
O=C(Nc1cc(Nc2ncccc2-c2ncnc3nc[nH]c23)ccc1F)c1cc(C(F)(F)F)cc(C(F)(F)F)c1	Not satisfied
CCOC(=O)NCCc1nc2c([nH]1)c(=O)n(C)c(=O)n2C	Satisfied
C=CCn1c(SCC(=O)Nc2ccc(C(=O)/C=C/c3cc(OC)c(OC)c(OC)c3)cc2)nnc1-c1ccc(Cl)cc1	Not satisfied
Cc1cc2ccccc2c[n+]1CC(=O)c1ccc(-c2ccccc2)cc1	Satisfied
COc1ccc2nc(-c3ccc(Cl)cc3)cc(-c3nnc(SCC(=O)Nc4ccc(/C(C)=N\O)cc4)o3)c2c1	Not satisfied
NC(=O)c1ccc(C2C3=C(CCCC3=O)OC3=C2C(=O)c2ccccc2C3=O)cc1 (stereo unspecified)	Not satisfied
Cc1ccn2c3c(c(C(=O)O)c2c1)C(=O)c1ccccc1C3=O	Not satisfied
COC(=O)[C@]1(C)CCC[C@]2(C)[C@H]3C[C@H]4C(C(C)C)=C[C@]3(CC[C@H]21)[C@@H]1C(=O)N(CCC#N)C(=O)[C@@H]14	Satisfied
C=C1C(=O)O[C@H]2[C@H]1CC/C(COC(=O)c1cc3ccccc3o1)=C\CC[C@@]1(C)O[C@@H]21	Not satisfied
Nc1c(C(=O)Nc2ccccn2)sc2nc3c(cc12)C(=O)CCC3	Not satisfied
COc1ccc(/C=C/C(=O)/C=C(/C=C/c2ccc(OC)c(OC)c2)OB(F)F)cc1OC	Not satisfied
CC[C@H](Nc1ncnc2nc[nH]c12)c1nc2cccc(CC(=O)c3ccc(C(=O)NO)cc3)c2c(=O)n1-c1ccccc1	Not satisfied
O=c1[nH]c2ccccc2cc1-c1nc2ccncc2[nH]1	Not satisfied
COc1cc(C(=O)Nc2cc(OC)c3ccn(C)c3c2)cc2c1C[C@]1(C)CC[C@@H](O)C(C)(C)[C@H]1O2	Not satisfied
COc1cc(C2=N/C(=C\c3cc4ccccc4nc3Oc3ccccc3)C(=O)N2C(=N)N)cc(OC)c1OC	Not satisfied
COc1ccc2c(c1)OC13Oc4cc(OC)ccc4C=C1CCCCC3=C2	Satisfied
COc1ccc(Sc2[nH]c(C(C)=O)c3ccccc23)cc1	Satisfied
C#Cc1cccc(Nc2ncnc3ccc(NC(=O)c4ccccc4)cc23)c1	Satisfied
Cc1cnc(-c2ccc(-c3ccc(NC(=O)Nc4c(F)cc(F)cc4F)cc3F)c3c2C(=O)NC3)[nH]1	Not satisfied
COc1ccc(C(=O)c2cc(OC)c(OC)c(OC)c2)cc1OC(=O)C(Cl)(Cl)Cl	Not satisfied
CC(=O)ON1CCCC(P(=O)(OCOC(=O)C(C)(C)C)OCOC(=O)C(C)(C)C)C1=O (stereo unspecified)	Not satisfied
CC(=O)Oc1c2c(nc3c1c1ccccc1n3Cc1ccccc1)-c1ccccc1C2	Satisfied
N#Cc1ccc(C2C3=C(CCCC3=O)OC3=C2C(=O)c2ccccc2C3=O)cc1 (stereo unspecified)	Satisfied

* * *

- Test system: CCRF-CEM leukemia
- assay: NCI-60 one-dose screen, 48 h (100 = growth as untreated, 0 = no growth, -100 = all killed)
- measurement-setup: 10 µM unless noted
Compounds without any hit were thinned out: in the full panel of roughly 83,000, 20% have a hit. Activity calls are given as the source filed them. How the source made its calls: active means growth percent below 10; inactive means the rest.
Reported growth values for a set of compounds
readout-kind: growth

compound	readout-kind	test-result
C=C(C)[C@@H]1CC[C@]2(C(=O)OCCOCCOCC[P+](c3ccccc3)(c3ccccc3)c3ccccc3)CC[C@]3(C)[C@H](CC[C@@H]4[C@@]5(C)CC[C@H](C)C(C)(C)[C@@H]5CC[C@]43C)[C@@H]12	growth	-63% (active)
CC1(C)Cc2c(Br)c(Br)c(Br)c(OCC(O)CN3CCOCC3)c2O1 (stereo not drawn)	growth	9.89% (active)
N#Cc1ccc(N2Cc3cc(Cl)ccc3OC3=C2C(=O)N(Cc2ccccc2)C3=O)cc1	growth	-9.47% (active)
COc1cc(NC(=O)COc2cc(C)nc3ccc(OC)cc23)cc(OC)c1	growth	82% (inactive)
C=C(C)[C@@H]1CC[C@]2(C(=O)N3CCN(C)CC3)CC[C@]3(C)[C@H](CC[C@@H]4[C@@]5(C)C/C(=C/c6ccco6)C(=O)C(C)(C)[C@@H]5CC[C@]43C)[C@@H]12	growth	50.1% (inactive)
CNCc1cccc2c1OCCOCCOCCN(CCN1CCOCC1)S(=O)(=O)c1ccc(cc1)-c1cnc(N)c(n1)C(=O)N2	growth	18% (inactive)
CCCCn1c2cc(OCc3cn(-c4ccc(Cl)cc4)nn3)ccc2c2ccnc(C)c21	growth	30.5% (inactive)
CSc1nc(-c2ccco2)c2c(N)[nH]nc2n1	growth	111% (inactive)

* * *

- Tested on: SR leukemia
- assay: NCI-60 one-dose screen, 48 h (100 = growth as untreated, 0 = no growth, -100 = all killed)
- measurement-setup: 10 µM unless noted
The panel holds about 83,000 compounds, 20% with a hit somewhere; the sample as a whole holds those more often.
Label key: met means growth under 10%; not met means growth of 10% or more.

molecule	assay-target	group
O=C1C(Cl)=C(NCCCN(CCCNC2=C(Cl)C(=O)c3ccccc3C2=O)C2=C(Cl)C(=O)c3ccccc3C2=O)C(=O)c2ccccc21	SR leukemia	met
COc1ccc2nc3nc4ccc[nH]c4cc3c2c1	SR leukemia	not met
O=C(O)c1cn(C2CC2)c2cc(N3CCN(C(=O)CSc4nnc(-c5ccc(Cl)cc5)n4-c4ccccc4)CC3)c(F)cc2c1=O	SR leukemia	not met
COc1ccc(Sc2[nH]c(C(C)=O)c3ccccc23)cc1	SR leukemia	met
CCCCc1nc(Cl)c(C2CC(c3ccc(Cl)cc3)=NN2c2cc(Cl)cc(Cl)c2)[nH]1 (stereo not given)	SR leukemia	not met
Cc1nnc(/N=C2\NC(=O)/C(=C/c3ccsc3)S2)s1	SR leukemia	not met
c1ccc(Sc2ncccn2)nc1	SR leukemia	not met
COCCOCCOCc1n(Cc2ccc3ccccc3c2)c2ccccc2[n+]1Cc1ccc2ccccc2c1	SR leukemia	met
COc1cc(-c2csc(NC(=O)Nc3ccc(C(F)(F)F)cc3)n2)cc(OC)c1OC	SR leukemia	met
C1=CC2=CC=C3C=CC=C4C(c5nc6c7ccccc7c7ccccc7c6[nH]5)=CC(=C1)C2C34 (stereo not given)	SR leukemia	not met
CCOC(=O)c1sc(/N=C2\NC(=O)/C(=C/c3ccc(N4CCN(C)CC4)cc3)S2)nc1C	SR leukemia	not met
Oc1c(CCl)cc(Cl)cc1Cc1cc(Cl)cc(Cc2cc(Cl)cc(CCl)c2O)c1O	SR leukemia	not met
CCCn1cc(/C=N\N=C2\C(=O)Nc3ccc(C)cc32)c2ccccc21	SR leukemia	not met
COCCc1n(Cc2ccc3ccccc3c2)c2ccccc2[n+]1Cc1ccc2ccccc2c1	SR leukemia	met
C/C(=N/Nc1nc2ccccc2n1C)c1ccccn1	SR leukemia	met
N#Cc1ccc(N2Cc3cc(Cl)ccc3OC3=C2C(=O)N(Cc2ccccc2)C3=O)cc1	SR leukemia	met
CC(=O)Nc1nc2c(c(N)c1C#N)C(c1cccc(Cl)c1)C1=C(CCCC1=O)N2c1sc2c(c1C#N)CCCC2 (stereo not given)	SR leukemia	not met
CCc1ccc(OCc2ccccc2C(=O)Nc2ccc3nc(C)cc(N)c3c2)cc1	SR leukemia	met
COc1ccc(-c2[nH]c3ccc(OC)cc3c2C=C(C#N)C#N)cc1	SR leukemia	met
NC(N)=NC(N)=Nc1cc2ccccc2c2ccccc12	SR leukemia	met
COc1cc(C2=NN(C=O)C(c3cccc(Nc4ccnc5cc(C(F)(F)F)ccc45)c3)C2)cc(OC)c1OC (stereo not given)	SR leukemia	not met
O=C(C[n+]1cccc2cc(Cl)ccc21)c1ccc2c(c1)CCCC2	SR leukemia	not met
COc1ccc(C(=O)c2cc(OC)c(C)c(OC)c2)cc1OC(=O)CCl	SR leukemia	not met
CCCCC(=O)Nc1c(C(=O)Nc2ccccc2)sc2nc3c(cc12)C(OC(=O)CCCC)CCC3 (stereo not given)	SR leukemia	met
O=C(/C(=C\c1c(-c2ccccc2)[nH]c2ccccc12)S(=O)(=O)c1ccccc1)c1ccccc1	SR leukemia	not met
CC1(C)CC[C@]2(c3nnc(-c4ccncc4)o3)CC[C@]3(C)C(=CC[C@@H]4[C@@]5(C)CCC(=O)C(C)(C)[C@@H]5CC[C@]43C)[C@@H]2C1	SR leukemia	not met
COc1cc(C(=O)Nc2cc(OC)c3ccn(C)c3c2)cc2c1C[C@]1(C)CC[C@@H](O)C(C)(C)[C@H]1O2	SR leukemia	not met
COc1ccc(C(=O)c2cc(F)c(F)c(OC)c2F)cc1OC(=O)CCl	SR leukemia	not met
CCOCc1nc2ccccc2c(=O)[nH]1	SR leukemia	not met
O=C(O)c1cc(N=Nc2ccc(-c3ccc(N=Nc4c(S(=O)(=O)O)cc5ccc(Nc6ccccc6)cc5c4O)cc3)cc2)ccc1O	SR leukemia	not met
C=C(C)[C@@H]1CC[C@]2(C(=O)OCCOCCOCC[P+](c3ccccc3)(c3ccccc3)c3ccccc3)CC[C@]3(C)[C@H](CC[C@@H]4[C@@]5(C)CC[C@H](OC(=O)C(Cl)Cl)C(C)(C)[C@@H]5CC[C@]43C)[C@@H]12	SR leukemia	met
O=C1NCc2ccc3c(-c4cccc(Cl)c4)c[nH]c3c21	SR leukemia	not met
C#CCN(CCCOc1ccc(Cl)cc1Cl)CCCSC(=O)CCCCCN1/C(=C\C=C2/CCCC(/C=C/C3=[N+](CCCCCC(=O)[O-])c4ccccc4C3(C)C)=C2Cl)C(C)(C)c2ccccc21	SR leukemia	met
C=C1C(=O)O[C@H]2[C@H]1CC/C(COC(=O)n1ccnc1)=C\CC[C@@]1(C)O[C@@H]21	SR leukemia	not met
CCC1=C[C@H]2CN(CCc3c([nH]c4ccccc34)[C@@](C(=O)OC)(c3cc4c(cc3OC)N(C)[C@H]3[C@@](O)(C(=O)OC)[C@H](OC(C)=O)[C@]5(CC)[C@@H]6C[C@@H]6CN6CC[C@]43[C@@H]65)C2)C1	SR leukemia	met
